Overview of reported pKi across a group of binders:
Target of assay: T1, αvβ8 integrin (purified, coated on microtiter plates) (UniProt P06756 31-992; P26012 43-684)
T1 construct: The Reagents section names no source for αvβ8; also called avs8
T1 sequence (P06756 31-992, chain 1 of 2): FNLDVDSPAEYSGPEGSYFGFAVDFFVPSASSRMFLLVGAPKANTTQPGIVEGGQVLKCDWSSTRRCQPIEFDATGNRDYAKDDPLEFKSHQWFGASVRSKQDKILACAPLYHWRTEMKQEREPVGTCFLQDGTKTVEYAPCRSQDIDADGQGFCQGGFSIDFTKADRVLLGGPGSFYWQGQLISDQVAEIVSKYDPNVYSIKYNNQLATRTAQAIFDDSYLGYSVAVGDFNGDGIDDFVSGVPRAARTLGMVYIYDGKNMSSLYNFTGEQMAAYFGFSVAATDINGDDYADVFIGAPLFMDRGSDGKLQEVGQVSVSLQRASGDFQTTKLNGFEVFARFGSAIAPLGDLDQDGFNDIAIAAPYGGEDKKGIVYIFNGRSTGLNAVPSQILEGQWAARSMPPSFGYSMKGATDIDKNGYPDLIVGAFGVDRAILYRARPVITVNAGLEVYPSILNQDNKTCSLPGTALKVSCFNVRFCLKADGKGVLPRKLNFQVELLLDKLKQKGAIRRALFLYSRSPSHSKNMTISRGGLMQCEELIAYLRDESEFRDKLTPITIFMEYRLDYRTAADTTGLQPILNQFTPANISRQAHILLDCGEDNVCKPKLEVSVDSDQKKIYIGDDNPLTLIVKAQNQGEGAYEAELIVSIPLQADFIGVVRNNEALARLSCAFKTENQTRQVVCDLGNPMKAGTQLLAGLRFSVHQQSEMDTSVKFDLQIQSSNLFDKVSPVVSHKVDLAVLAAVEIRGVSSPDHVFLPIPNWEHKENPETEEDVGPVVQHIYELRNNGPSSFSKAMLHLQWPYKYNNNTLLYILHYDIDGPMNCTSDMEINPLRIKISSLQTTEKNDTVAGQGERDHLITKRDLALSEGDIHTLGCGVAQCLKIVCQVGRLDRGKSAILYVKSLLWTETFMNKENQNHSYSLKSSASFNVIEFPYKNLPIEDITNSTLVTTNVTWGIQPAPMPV
T1 sequence (P26012 43-684, chain 2 of 2): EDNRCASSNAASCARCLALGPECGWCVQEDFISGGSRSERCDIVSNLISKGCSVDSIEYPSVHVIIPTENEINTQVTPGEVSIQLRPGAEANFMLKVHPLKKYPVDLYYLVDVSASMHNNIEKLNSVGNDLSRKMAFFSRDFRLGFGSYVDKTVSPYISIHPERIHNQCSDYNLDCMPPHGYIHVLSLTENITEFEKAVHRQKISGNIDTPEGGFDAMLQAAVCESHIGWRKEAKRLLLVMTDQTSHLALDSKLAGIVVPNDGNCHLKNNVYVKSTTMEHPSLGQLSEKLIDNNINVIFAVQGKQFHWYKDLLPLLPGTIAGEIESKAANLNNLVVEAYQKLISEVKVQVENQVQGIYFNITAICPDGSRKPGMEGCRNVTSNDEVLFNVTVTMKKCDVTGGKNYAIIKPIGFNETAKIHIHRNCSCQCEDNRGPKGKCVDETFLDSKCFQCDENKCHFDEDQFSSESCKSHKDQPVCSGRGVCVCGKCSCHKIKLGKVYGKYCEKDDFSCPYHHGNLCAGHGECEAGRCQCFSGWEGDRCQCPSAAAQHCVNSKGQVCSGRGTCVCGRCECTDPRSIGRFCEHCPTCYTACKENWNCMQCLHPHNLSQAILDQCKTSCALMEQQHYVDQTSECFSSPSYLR
Assay name: competitive binding assay on αvβ8-coated plates, isoDGR/STV-HRP probe
Where no end group is shown, it is not given here.
The scale used: pKi is minus the common logarithm of the concentration in molar units.

1) FETLRGDERILSILRHQNLLKELQD (Synthetic peptide bought from Biomatik; no terminal modification is stated for it; also called compound 1) [peptide 1 (CgA-derived peptide, residues 39-63), synthetic]; 5.12

Turning now to a further binder:
Data request: What value of pKi has been recorded for this entry: FETLRGDERILSILR-NH2 (Made by Fmoc-SPPS on a Rink-amide resin; also called compound 3) [peptide 3]
Data returned: 4.51
